Attribution: ChEMBL document CHEMBL1201862

system: LOX IMVI; test: NCI tumour cell line growth inhibition, 48 h
The source made the active and inactive calls. Rule as the data show it: active = GI50 up to about 1.1 µM and inactive = higher.
Measured property: GI50

Given CCSC12CC3c4cccc5c4C(CN5C(=O)c4ccccc4)CC3(O1)N(C)C2=O (stereo unspecified) , respond with its GI50.
31.3 µM (inactive)

For "CCOC(=O)c1ccc(/N=C/C=C(\Nc2ccc(C(=O)OCC)cc2)C23CC4CC(CC(C4)C2)C3)cc1" , write its GI50.
95.3 µM (inactive)

Determine from records and report GI50 for "COC(OC)[C@@H]1OC[C@H](n2ccc(=O)[nH]c2=O)[C@H]1O"
> 100 µM (inactive)

Give the reported GI50 for this molecule. "CCOC(=O)c1sc2[n+](c1C)C(=O)/C(=C/c1ccc([N+](=O)[O-])cc1)S2"
25.2 µM (inactive)

Please indicate GI50 recorded for COC(=O)C1(Cc2cccc(C)c2)Cc2c(C)cccc2C1=O (stereo unspecified)
50.1 µM (inactive)

Query GI50 for C/C(=N/Nc1ccc([N+](=O)[O-])cc1[N+](=O)[O-])C(CC(C(=O)Nc1ccccc1C)/C(C)=N\Nc1ccc([N+](=O)[O-])cc1[N+](=O)[O-])C(=O)Nc1ccccc1C (stereo unspecified)
14.4 µM (inactive)

Input CC1(Cl)CC2C(CC1Sc1nnnn1-c1ccccc1)C2(C)C (stereo unspecified) , output reported GI50.
> 100 µM (inactive)

Query GI50 for "N#CC(C#N)=C1SCC(=O)CS1"
> 100 µM (inactive)

Fill in reported GI50 for this entry: "CCCc1nnc2sc(COc3ccc(OCc4nn5c(CCC)nnc5s4)c(Cl)c3)nn12"
33.7 µM (inactive)

# return recorded GI50 for input COc1c(OC2OC(CO)C(O)C(O)C2O)cc2c(c1OC)-c1ccc(OC)c(=O)cc1[C@@H](NC(C)=O)CC2 (stereo partly specified)
> 100 µM (inactive)

Indicate the recorded GI50 value for this molecule: "COC(=O)n1c(=O)n(-c2ccccc2)c(=O)n1C(=O)OC"
> 100 µM (inactive)

Give recorded GI50. CN(C)c1ccc(C2SCC(=O)N2c2ccc(Oc3ccc(Cl)cc3)c(Cl)c2)cc1 (stereo unspecified)
18.7 µM (inactive)

Report measured GI50; entry is c1ccc(C2=NNC3c4ccccc4-c4ccccc4N3C2)cc1 (stereo unspecified)
28.6 µM (inactive)

Indicate the recorded GI50 value for this molecule: "COc1c(C(=O)c2ccc([N+](=O)[O-])cc2)cc(C(C)(C)C)cc1C(C)(C)C"
12.3 µM (inactive)

Note GI50 for the molecule shown: "O=C(O)c1cccc(Nc2c(C(=O)O)cccc2[N+](=O)[O-])c1"
> 100 µM (inactive)

Name the recorded GI50 of the molecule listed here: CCOC(=O)C(=CNc1ccc(N(C2=NCC(C)S2)c2ccc(F)c(Cl)c2)cc1)C(=O)OCC (stereo unspecified)
16.8 µM (inactive)

Output GI50 of N#CC1=C(c2ccccc2)OC2(N)OC(c3ccccc3)=C(C#N)C12C#N (stereo unspecified)
> 100 µM (inactive)

Give a short answer stating reported GI50 for O=c1[nH]cc(F)c(=O)n1C1OC(CO)C(O)C1O (stereo unspecified) .
> 100 µM (inactive)

Indicate its recorded GI50; the molecule in question is "O=C1O/C(=C\c2ccc(O)cc2)C(c2ccc(O)c(Cl)c2)=C1Cl"
50.6 µM (inactive)

Look up and report measured GI50 for this entry: "O=C1N=C(c2ccccc2)O/C1=C\c1ccccc1"
> 100 µM (inactive)

Recall and state the measured GI50 for "COc1ccc2c(c1)Cc1cc(/N=[N+](\[O-])c3ccc4c(c3)Cc3cc(OC)ccc3-4)ccc1-2" .
33.1 µM (inactive)

Identify GI50 associated with the molecule "COc1ccc(C(=O)C/C(=N/NC(N)=S)C(=O)Nc2ccccc2)cc1"
> 100 µM (inactive)

Output measured GI50 for this item: COc1cc(OC)c(C2CC=Cc3c(OC)cc(OC)c(OC)c32)cc1OC (stereo unspecified)
> 100 µM (inactive)

Fill in reported GI50 for this entry: CCOC(=O)C(C)c1nc2cc(F)c(F)cc2[nH]c1=O (stereo unspecified)
> 100 µM (inactive)

Given the molecule "CC(C)(C)c1cc(Br)c(O)c(CN(Cc2cc(C(C)(C)C)cc(Br)c2O)C2CCCCC2)c1" , write its reported GI50.
16.3 µM (inactive)

Dear colleague, please send me the reported GI50 for "CC(C)(C)NNC(=O)/C(=C/c1ccc([N+](=O)[O-])cc1)NC(=O)c1ccccc1" when you can.
17.2 µM (inactive)
